Value source: ChEMBL document CHEMBL5154717

- assay.info: Metabolic stability in mouse hepatocytes assessed as compound remaining at 1 uM measured by LC-MS/MS analysis
- Assay type: ADME, cell-based, Hepatocyte
- assay.context: read-out: Stability
recorded.metric: remaining at 1 µM (%)
Answers are plain numbers, in %.

In [3]: df
Out[3]:
                               input_smiles    recorded_metric  meas_value
0  Cc1ccnc(NC(=O)c2ccsc2NC(=O)c2ccc(S(=O)(=O)N3CCCCC3)cc2)n1  remaining at 1 µM         7.3

For each listed entry, give its remaining at 1 µM.
1. COC(=O)NC(=O)c1ccsc1NC(=O)c1ccc(S(=O)(=O)N2CCCCC2)cc1
2. CCOC(=O)NC(=O)c1ccsc1NC(=O)c1ccc(S(=O)(=O)N2CCCC2)cc1
3. CCOC(=O)NC(=O)c1ccsc1NC(=O)c1ccc(S(=O)(=O)N2CCCCC2)cc1

1: 22.7; 2: 49.7; 3: 66.3

* * *

Answer each item with its documented half-life at 1 µM.
- assay.info: Metabolic stability in mouse hepatocytes assessed as half-life at 1 uM measured by LC-MS/MS analysis
- Type: ADME, cell-based, Hepatocyte
One number for each entry, in min.

                               input_smiles    recorded_metric  meas_value
0  CCOC(=O)NC(=O)c1ccsc1NC(=O)c1ccc(S(=O)(=O)N2CCCC2)cc1  half-life at 1 µM        29.7
1  Cc1ccnc(NC(=O)c2ccsc2NC(=O)c2ccc(S(=O)(=O)N3CCCCC3)cc2)n1  half-life at 1 µM         7.9
2  CCOC(=O)NC(=O)c1ccsc1NC(=O)c1ccc(S(=O)(=O)N2CCCCC2)cc1  half-life at 1 µM        50.6

Requested field: half-life at 1 µM. Item: COC(=O)NC(=O)c1ccsc1NC(=O)c1ccc(S(=O)(=O)N2CCCCC2)cc1 14

* * *

- assay.info: Metabolic stability in human hepatocytes assessed as compound remaining at 1 uM measured by LC-MS/MS analysis
- Format: ADME, cell-based, Hepatocyte
- assay.context: read-out: Stability
recorded.metric: remaining at 1 µM
State the value with its unit after it.

>>> df
                               input_smiles    recorded_metric  meas_value
0  Cc1ccnc(NC(=O)c2ccsc2NC(=O)c2ccc(S(=O)(=O)N3CCCCC3)cc2)n1  remaining at 1 µM       41.2%
1  CCOC(=O)NC(=O)c1ccsc1NC(=O)c1ccc(S(=O)(=O)N2CCCC2)cc1  remaining at 1 µM         42%
2  COC(=O)NC(=O)c1ccsc1NC(=O)c1ccc(S(=O)(=O)N2CCCCC2)cc1  remaining at 1 µM          1%

Requested field: remaining at 1 µM. Item: CCOC(=O)NC(=O)c1ccsc1NC(=O)c1ccc(S(=O)(=O)N2CCCCC2)cc1 49.8%

* * *

- assay.info: Metabolic stability in human hepatocytes assessed as half-life at 1 uM measured by LC-MS/MS analysis
- Type: ADME, cell-based, Hepatocyte
recorded.metric: half-life at 1 µM

In [3]: df
Out[3]:
                               input_smiles  meas_value
0  CCOC(=O)NC(=O)c1ccsc1NC(=O)c1ccc(S(=O)(=O)N2CCCC2)cc1      24 min
1  CCOC(=O)NC(=O)c1ccsc1NC(=O)c1ccc(S(=O)(=O)N2CCCCC2)cc1    29.9 min
2  Cc1ccnc(NC(=O)c2ccsc2NC(=O)c2ccc(S(=O)(=O)N3CCCCC3)cc2)n1    23.4 min

Please turn your attention to the following entry.
Requested field: half-life at 1 µM. Item: COC(=O)NC(=O)c1ccsc1NC(=O)c1ccc(S(=O)(=O)N2CCCCC2)cc1 4.6 min

* * *

- target.under.test: Decaprenylphosphoryl-beta-D-ribose oxidase (Mycobacterium tuberculosis (strain ATCC 25618 / H37Rv))
- Sequence (P9WJF1 whole entry): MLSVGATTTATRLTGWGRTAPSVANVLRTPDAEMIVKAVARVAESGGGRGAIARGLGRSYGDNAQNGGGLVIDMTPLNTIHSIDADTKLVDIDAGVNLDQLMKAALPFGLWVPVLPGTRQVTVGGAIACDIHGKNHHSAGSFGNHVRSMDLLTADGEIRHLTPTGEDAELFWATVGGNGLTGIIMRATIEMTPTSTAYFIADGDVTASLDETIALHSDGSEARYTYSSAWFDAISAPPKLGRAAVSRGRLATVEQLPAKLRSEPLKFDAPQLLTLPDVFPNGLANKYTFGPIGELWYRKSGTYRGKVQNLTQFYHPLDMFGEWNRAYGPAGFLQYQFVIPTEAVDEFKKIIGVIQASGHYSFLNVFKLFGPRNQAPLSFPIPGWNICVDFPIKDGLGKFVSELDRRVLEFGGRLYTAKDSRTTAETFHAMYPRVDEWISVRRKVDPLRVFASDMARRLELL
- assay.info: Inhibition of recombinant Mycobacterium tuberculosis DprE1 measured by resazurin dye based assay
recorded.metric: IC50 (nM)
Give bare numbers, in nM.

Requested field: IC50. Item: COC(=O)NC(=O)c1ccsc1NC(=O)c1ccc(S(=O)(=O)N2CCCCC2)cc1 221

* * *

- System: Mycobacterium tuberculosis
- assay.info: Antimycobacterial activity against Mycobacterium tuberculosis H37Rv measured by MABA assay
- Assay type: functional
recorded.metric: MIC (µg/mL)
One number for each entry, in µg/mL.

input.smiles	scale.unit	MIC
COC(=O)NC(=O)c1ccsc1NC(=O)c1ccc(S(=O)(=O)N2CCCC2)cc1	µg/mL	0.1
CC(C)OC(=O)NC(=O)c1ccsc1NC(=O)c1ccc(S(=O)(=O)N2CCOCC2)cc1	µg/mL	0.45
CCOC(=O)NC(=O)c1ccsc1NC(=O)c1ccc(S(=O)(=O)Nc2ccc(OC)cc2)cc1	µg/mL	3.64

For each listed entry, give its MIC.
1. NNC(=O)c1ccncc1
2. CCCCNS(=O)(=O)c1ccc(C(=O)Nc2sccc2C(=O)NC(=O)OC)cc1
3. CCOC(=O)NC(=O)c1ccsc1NC(=O)c1ccc(S(=O)(=O)N2CCC(OC)CC2)cc1

1: 0.019; 2: 0.28; 3: 0.03

* * *

- assay.info: Cytotoxicity against human HepG2 cells measured by MTT assay
- Format: toxicity, cell-based
recorded.metric: IC50 (µg/mL)
Answers are plain numbers, in µg/mL.

Some solved entries appear below for comparison.
In [3]: df
Out[3]:
                               input_smiles  scale_unit  meas_value
0  CCOC(=O)NC(=O)c1ccsc1NC(=O)c1ccc(S(=O)(=O)N2CCCC2)cc1       µg/mL        62.9
1  COC(=O)NC(=O)c1ccsc1NC(=O)c1ccc(S(=O)(=O)N2CCCCC2)cc1       µg/mL        36.8
2  CCOC(=O)NC(=O)c1ccsc1NC(=O)c1ccc(S(=O)(=O)N2CCCCC2)cc1       µg/mL        38.8

Requested field: IC50. Item: COC(=O)NC(=O)c1ccsc1NC(=O)c1ccc(S(=O)(=O)N2CCC(OC)CC2)cc1 46.1

* * *

Answer each item with its documented IC50.
- assay.info: Cytotoxicity against African green monkey Vero cells measured by MTT assay
- Format: toxicity, cell-based
- assay.context: African green monkey (Chlorocebus sabaeus)

Some solved entries appear below for comparison.
>>> df
                               input_smiles  meas_value
0  CCOC(=O)NC(=O)c1ccsc1NC(=O)c1ccc(S(=O)(=O)N2CCC(OC)CC2)cc1    21 µg/mL
1  COC(=O)NC(=O)c1ccsc1NC(=O)c1ccc(S(=O)(=O)N2CCCCCC2)cc1  9.13 µg/mL
2  COC(=O)NC(=O)c1ccsc1NC(=O)c1ccc(S(=O)(=O)N2CCCCC2)cc1  3.62 µg/mL
3  COC(=O)NC(=O)c1ccsc1NC(=O)c1ccc(S(=O)(=O)N2CCC(OC)CC2)cc1    18 µg/mL
4  COC(=O)NC(=O)c1ccsc1NC(=O)c1ccc(S(=O)(=O)N(C)C)cc1  16.2 µg/mL
5  CCOC(=O)NC(=O)c1ccsc1NC(=O)c1ccc(S(=O)(=O)Nc2ccc(F)cc2)cc1  20.5 µg/mL
6  COC(=O)NC(=O)c1ccsc1NC(=O)c1ccc(S(=O)(=O)N2CCCC2)cc1  39.4 µg/mL
7  Cc1ccnc(NC(=O)c2ccsc2NC(=O)c2ccc(S(=O)(=O)N3CCOCC3)cc2)n1  42.7 µg/mL

For each listed entry, give its IC50.
1. CCOC(=O)NC(=O)c1ccsc1NC(=O)c1ccc(S(=O)(=O)N2CCCCC2)cc1
2. COC(=O)NC(=O)c1ccsc1NC(=O)c1ccc(S(=O)(=O)N2CCC(C)CC2)cc1
3. CCOC(=O)NC(=O)c1ccsc1NC(=O)c1ccc(S(=O)(=O)N2CCC2)cc1
4. COC(=O)NC(=O)c1ccsc1NC(=O)c1ccc(C(=O)N2CCCCC2)cc1

1. 18.6 µg/mL
2. 9.13 µg/mL
3. > 64 µg/mL
4. > 64 µg/mL

For each listed entry, give its IC50.
1. CCOC(=O)NC(=O)c1ccsc1NC(=O)c1ccc(S(=O)(=O)N2CCCC2)cc1
2. CCOC(=O)NC(=O)c1ccsc1NC(=O)c1ccc(S(=O)(=O)N2CCCCCC2)cc1
3. COC(=O)NC(=O)c1ccsc1NC(=O)c1ccc(S(=O)(=O)NC2CCCCC2)cc1
4. CCCOC(=O)NC(=O)c1ccsc1NC(=O)c1ccc(S(=O)(=O)N2CCCCC2)cc1
5. Cc1ccnc(NC(=O)c2ccsc2NC(=O)c2ccc(S(=O)(=O)N3CCCCC3)cc2)n1
6. CC(C)OC(=O)NC(=O)c1ccsc1NC(=O)c1ccc(S(=O)(=O)N2CCOCC2)cc1
7. COC(=O)NC(=O)c1ccsc1NC(=O)c1ccc(S(=O)(=O)N2CCC2)cc1
8. CCCCNS(=O)(=O)c1ccc(C(=O)Nc2sccc2C(=O)NC(=O)OC)cc1

58.2 µg/mL
3.42 µg/mL
> 64 µg/mL
56.6 µg/mL
32.8 µg/mL
13.1 µg/mL
17.5 µg/mL
29.5 µg/mL

For each listed entry, give its IC50.
1. CCOC(=O)NC(=O)c1ccsc1NC(=O)c1ccc(S(=O)(=O)Nc2ccccc2)cc1
2. CCN(C)S(=O)(=O)c1ccc(C(=O)Nc2sccc2C(=O)NC(=O)OC)cc1

["14.5 µg/mL", "10.4 µg/mL"]
